- Tested on: MCF7
- protocol_summary: NCI cytotoxicity screen, Breast Cancer panel
- Assay type: cell-based
- stated_conditions: Homo sapiens, single dose 10 µM, negative = lethal, read-out: Percent growth inhibition
reported_metric: inhibition at 10 µM (%)
State just the number; it will be interpreted in %.

Here's what some known entries look like.
>  <mol_smiles>
Fc1ccc(-c2cn3ccnc3c(-c3ccc4c(c3)ncn4C3CCCCC3)n2)cc1

>  <target_under_test>
MCF7

>  <readout_unit>
%

>  <inhibition at 10 µM>
9.59

$$$$
>  <mol_smiles>
COc1ccc(-c2cn3ccnc3c(-c3ccc4c(c3)ncn4C3CCCCC3)n2)cc1

>  <target_under_test>
MCF7

>  <readout_unit>
%

>  <inhibition at 10 µM>
19.7

$$$$
>  <mol_smiles>
c1csc(-c2cn3ccnc3c(-c3ccc4c(c3)ncn4C3CCCCC3)n2)c1

>  <target_under_test>
MCF7

>  <readout_unit>
%

>  <inhibition at 10 µM>
34

$$$$
>  <mol_smiles>
c1ccc2c(-c3cn4ccnc4c(-c4ccc5c(c4)ncn5C4CCCCC4)n3)cccc2c1

>  <target_under_test>
MCF7

>  <readout_unit>
%

>  <inhibition at 10 µM>
35.7

$$$$
>  <mol_smiles>
Brc1cn2ccnc2c(-c2ccc3c(c2)ncn3C2CCCCC2)n1

>  <target_under_test>
MCF7

>  <readout_unit>
%

>  <inhibition at 10 µM>
37.6

$$$$

Please report the measured inhibition at 10 µM for c1cn2cc(-c3ccc4c(c3)ncn4C3CCCCC3)nc(-c3ccc4c(c3)ncn4C3CCCCC3)c2n1 23.9

Indicate its recorded inhibition at 10 µM; the compound in question is c1cn2cc(-c3ccsc3)nc(-c3ccc4c(c3)ncn4C3CCCCC3)c2n1 12

Please look at this compound and report its inhibition at 10 µM: c1ccc(-c2cn3ccnc3c(-c3ccc4c(c3)ncn4C3CCCCC3)n2)cc1 15.8

###

- Tested on: IGROV1
- protocol_summary: NCI cytotoxicity screen, Ovarian Cancer panel
- Format: cell-based
- stated_conditions: Homo sapiens, IGROV-1, single dose 10 µM, negative = lethal, read-out: Percent growth inhibition
Overview of reported inhibition at 10 µM across a group of compounds:
# output: bare number, implied unit %

>  <mol_smiles>
c1cn2cc(-c3ccsc3)nc(-c3ccc4c(c3)ncn4C3CCCCC3)c2n1

>  <meas_value>
19.1

$$$$

Lab note: next compound to report on.
Dear colleague, please send me the reported inhibition at 10 µM for Brc1cn2ccnc2c(-c2ccc3c(c2)ncn3C2CCCCC2)n1 when you can. 8.45

###

reported_metric: melting point

Solved cases below.
>  <compound>
Fc1ccccc1-c1cn2ccnc2c(-c2ccc3c(c2)ncn3C2CCCCC2)n1 [Compound 21]

>  <melting point>
190 to 193 °C

$$$$
>  <compound>
c1cn2cc(-c3ccsc3)nc(-c3ccc4c(c3)ncn4C3CCCCC3)c2n1 [Compound 14]

>  <melting point>
185 to 188 °C

$$$$
>  <compound>
Brc1ccc(-c2cn3ccnc3c(-c3ccc4c(c3)ncn4C3CCCCC3)n2)cc1 [Compound 19]

>  <melting point>
195 to 198 °C

$$$$

Consider the compound CCc1ccc(-c2cn3ccnc3c(-c3ccc4c(c3)ncn4C3CCCCC3)n2)cc1 [Compound 16] . State its measured melting point. 182 to 185 °C

Consider the compound COc1ccccc1-c1cn2ccnc2c(-c2ccc3c(c2)ncn3C2CCCCC2)n1 [Compound 20] and give its recorded melting point. 195 to 198 °C

Please give the documented melting point of CC(=O)c1ccc(-c2cn3ccnc3c(-c3ccc4c(c3)ncn4C3CCCCC3)n2)cc1 [Compound 17] 200 to 203 °C

Supply reported melting point belonging to this compound: Clc1ccc(-c2cn3ccnc3c(-c3ccc4c(c3)ncn4C3CCCCC3)n2)cc1 [Compound 18] 193 to 196 °C

Respond only with melting point recorded for c1csc(-c2cn3ccnc3c(-c3ccc4c(c3)ncn4C3CCCCC3)n2)c1 [Compound 22] 187 to 190 °C

###

- Test system: CCRF-CEM
- protocol_summary: NCI cytotoxicity screen, Leukemia panel
- Assay type: cell-based
- stated_conditions: Homo sapiens, single dose 10 µM, negative = lethal, read-out: Percent growth inhibition
reported_metric: inhibition at 10 µM

In the examples that follow, each entry is paired with its recorded inhibition at 10 µM.
>  <mol_smiles>
Fc1ccc(-c2cn3ccnc3c(-c3ccc4c(c3)ncn4C3CCCCC3)n2)cc1

>  <meas_value>
< 1%

$$$$
>  <mol_smiles>
c1csc(-c2cn3ccnc3c(-c3ccc4c(c3)ncn4C3CCCCC3)n2)c1

>  <meas_value>
< 1%

$$$$

Give reported inhibition at 10 µM value for Brc1cn2ccnc2c(-c2ccc3c(c2)ncn3C2CCCCC2)n1 < 1%

###

In this section we review reported inhibition at 10 µM values for a set of molecules.
- Tested on: K-562
- protocol_summary: NCI cytotoxicity screen, Leukemia panel
- Assay type: cell-based
- stated_conditions: Homo sapiens, K562; K-562; single dose 10 µM; negative = lethal; read-out: Percent growth inhibition
Report only the number, with the unit % understood.

>  <molecule>
Fc1ccc(-c2cn3ccnc3c(-c3ccc4c(c3)ncn4C3CCCCC3)n2)cc1 [Compound 13]

>  <target_under_test>
K-562

>  <readout_unit>
%

>  <inhibition at 10 µM>
13.2

$$$$
>  <molecule>
c1cn2cc(-c3ccc4c(c3)ncn4C3CCCCC3)nc(-c3ccc4c(c3)ncn4C3CCCCC3)c2n1 [Compound 30]

>  <target_under_test>
K-562

>  <readout_unit>
%

>  <inhibition at 10 µM>
47.2

$$$$
>  <molecule>
COc1ccc(-c2cn3ccnc3c(-c3ccc4c(c3)ncn4C3CCCCC3)n2)cc1 [Compound 10]

>  <target_under_test>
K-562

>  <readout_unit>
%

>  <inhibition at 10 µM>
29.2

$$$$

Supply inhibition at 10 µM value. Item: c1ccc2c(-c3cn4ccnc4c(-c4ccc5c(c4)ncn5C4CCCCC4)n3)cccc2c1 [Compound 12] 38

Origin of values: paper PMC7162861
